ASSAYED_SYSTEM: Recombinant Human Bromodomain containing protein 4, bromodomain 2 (BRD4-BD2) (Homo sapiens, UniProt O60885)
Construct: purchased Reaction Biology (RBC) RD-11–141; host or cells: E. coli
PROTOCOL_DESCRIPTION: AlphaScreen bromodomain binding assay (Reaction Biology), BRD4-2
CONDITION_SUMMARY: ligand Histone H4 peptide (1–21) K5/8/12/16Ac-Biotin; in comparison with (+)-JQ1; read-out: IC50 on BRD4-BD2
MEASURED_ENDPOINT: pIC50
# pIC50 is unitless: minus log10 of the molar concentration; print number only

Challenge: Please report the recorded pIC50 for Cc1nnc2n1-c1ccc(C#CCCCC(=O)NO)cc1C(c1ccccc1)=NC2 [SUM35] .
Response given: 6.93

* * *

ASSAYED_SYSTEM: Recombinant Human Bromodomain containing protein 4, bromodomain 1 (BRD4-BD1) (Homo sapiens, UniProt O60885)
Construct: bromodomain 1 (aa 44–170); purchased Reaction Biology (RBC) RD-11–140; host or cells: E. coli
PROTOCOL_DESCRIPTION: AlphaScreen bromodomain binding assay (Reaction Biology), BRD4-1
CONDITION_SUMMARY: ligand Histone H4 peptide (1–21) K5/8/12/16Ac-Biotin; in comparison with (+)-JQ1; read-out: IC50 on BRD4-BD1
MEASURED_ENDPOINT: IC50 (nM)
Give the number; nM is assumed, so skip it.

Challenge: Please report the recorded IC50 for Cc1nnc2n1-c1ccc(C#CCCCC(=O)NO)cc1C(c1ccccc1)=NC2 .
Response given: 1720

* * *

ASSAYED_SYSTEM: Recombinant Human Bromodomain containing protein 4, bromodomain 1 (BRD4-BD1) (Homo sapiens)
Construct: bromodomain 1 (aa 44–170); purchased Reaction Biology (RBC) RD-11–140; host or cells: E. coli
PROTOCOL_DESCRIPTION: AlphaScreen bromodomain binding assay (Reaction Biology), BRD4-1
MEASURED_ENDPOINT: pIC50
# pIC50 is unitless: minus log10 of the molar concentration; print number only

Challenge: Please report the recorded pIC50 for Cc1nnc2n1-c1ccccc1C(c1ccccc1)=N[C@H]2CC(=O)NCCCCCCC(=O)NO .
Response given: 6.12

* * *

ASSAYED_SYSTEM: Recombinant Human Bromodomain containing protein 4, bromodomain 2 (BRD4-BD2) (Homo sapiens)
Construct: purchased Reaction Biology (RBC) RD-11–141; host or cells: E. coli
PROTOCOL_DESCRIPTION: AlphaScreen bromodomain binding assay (Reaction Biology), BRD4-2
MEASURED_ENDPOINT: pIC50
# pIC50 is unitless: minus log10 of the molar concentration; print number only

Challenge: Please report the recorded pIC50 for Cc1nnc2n1-c1ccccc1C(c1ccccc1)=N[C@H]2CC(=O)NCCCCCCC(=O)NO .
Response given: 7.98
